This collection of values is drawn from patent US20260167714A1.

Target: T1, human ILT4 expressed on cells (human, UniProt Q8N423 22-597)
T1 construct: whole, on cells; also called CHO-S/ILT4 cells; ILT4-CHO cells
T1 sequence (Q8N423 22-597): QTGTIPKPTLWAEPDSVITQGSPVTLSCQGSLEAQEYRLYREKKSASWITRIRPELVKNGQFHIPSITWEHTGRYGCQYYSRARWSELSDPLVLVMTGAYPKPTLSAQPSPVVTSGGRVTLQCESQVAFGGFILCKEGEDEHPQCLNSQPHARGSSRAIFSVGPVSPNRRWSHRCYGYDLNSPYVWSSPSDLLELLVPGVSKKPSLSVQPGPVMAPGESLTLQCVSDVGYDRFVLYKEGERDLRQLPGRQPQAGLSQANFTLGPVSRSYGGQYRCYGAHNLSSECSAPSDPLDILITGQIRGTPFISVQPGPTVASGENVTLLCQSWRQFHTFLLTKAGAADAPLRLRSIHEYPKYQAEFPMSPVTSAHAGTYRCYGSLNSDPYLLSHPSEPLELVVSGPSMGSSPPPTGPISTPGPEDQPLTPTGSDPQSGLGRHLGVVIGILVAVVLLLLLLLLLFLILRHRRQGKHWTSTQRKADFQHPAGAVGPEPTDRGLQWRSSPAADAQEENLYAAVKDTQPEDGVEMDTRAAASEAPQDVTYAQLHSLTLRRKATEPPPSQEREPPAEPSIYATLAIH
Experiment: flow cytometry blocking assay: ILT4-expressing CHO cells preincubated with antibody, then PE-HLA-G; HLA-G binding MFI falls from about 105000 (no antibody) to near 0
Description: In the second blocking experiment, the primary antibody dilutions were made by diluting antibody to 15 μg/ml in FACS buffer. Three independent sets of eleven 2.5-fold serial dilutions were then made in FACS buffer from 15 μg/ml to 0.002 μg/ml. […] Cells were acquired on an Attune flow cytometer, with 5000 propidium iodide-negative cells collected per sample, and MFI was recorded. […] The blocking potency for each antibody, represented as IC₅₀, was calculated with Prism software.
measured_property: IC50 (µg/mL)
API: value field is a number in µg/mL; no unit string.

Worked cases, answers included:
binder="J19h1 (antibody, V domains shown) VH: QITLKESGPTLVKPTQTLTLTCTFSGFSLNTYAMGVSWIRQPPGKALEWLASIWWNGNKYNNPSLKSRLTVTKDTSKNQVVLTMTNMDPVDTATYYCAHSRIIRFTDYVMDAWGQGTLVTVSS VL: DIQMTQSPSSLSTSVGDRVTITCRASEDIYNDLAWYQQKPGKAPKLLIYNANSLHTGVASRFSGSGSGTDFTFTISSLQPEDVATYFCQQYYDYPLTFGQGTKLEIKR" measured_property=IC50 assay_value=0.233
binder="L156S3 (antibody, IgG2a, V domains shown, also called mouse anti-human ILT4 antibody L156S3) VH: QVQLKQSGAELVRPGASVKLSCRASGYTFTDYYMNWVKQRPGQGLEWIARIYPGVYRTHYNEKFKDKATLTAEKSSSTAYMELSSLTSEDSAVYFCARSGYYGGTYEEDAMDYWGQGTSVTVSS VL: DIQMTQSPASLSVSVGETVTITCRASENIYSNLAWYQQKQGKSPQLLVYAATSLADGVPSRFRGSGSGTQYSLKISSLQSEDFGNYYCQNFWDTPYTFGGGTKLEIK" measured_property=IC50 assay_value=0.088

Now turn to the next binder.
Which IC50 reading was recorded for the binder L180S4 (antibody, IgG1, V domains shown, also called Murine 180; mouse anti-human ILT4 antibody L180S4) VH: EVHLQQSGPELVKPGASVKISCKASGYSFIGYFMNWMKQSHGKSLEWIGRINPYNGDIFYNQKFKGKATLTVDKSSTTAHMDLLSLTSEDFAVYYCARGITVAAGSFDVWGTGTTVTVSS VL: DIVLTQSPASLAVSLGQRATISCRASESVDNYGNTFMHWYQQKPGQPPKLLIYRASNLESGIPARFSGSGSKTDFTLTINPVEADDVATYYCQQSSDHPLTFGAGTKLELS ?
0.064
